# inhibition at 0.3 µM listing for each entry below
Target: human PRS protein (His-Avi-hEPRS (998-1512)) (Homo sapiens)
Construct: to construct His-Avi-hEPRS (998-1512) expression plasmid; His tag (N); Avi tag (N); TEV cleavage site (ENLYFQG, then S; inferred from the forward primer hEPRS-TEV-NheF) (N); made in house; host or cells: E. coli BL21(DE3)
Sequence (P07814 998-1512 limits assumed): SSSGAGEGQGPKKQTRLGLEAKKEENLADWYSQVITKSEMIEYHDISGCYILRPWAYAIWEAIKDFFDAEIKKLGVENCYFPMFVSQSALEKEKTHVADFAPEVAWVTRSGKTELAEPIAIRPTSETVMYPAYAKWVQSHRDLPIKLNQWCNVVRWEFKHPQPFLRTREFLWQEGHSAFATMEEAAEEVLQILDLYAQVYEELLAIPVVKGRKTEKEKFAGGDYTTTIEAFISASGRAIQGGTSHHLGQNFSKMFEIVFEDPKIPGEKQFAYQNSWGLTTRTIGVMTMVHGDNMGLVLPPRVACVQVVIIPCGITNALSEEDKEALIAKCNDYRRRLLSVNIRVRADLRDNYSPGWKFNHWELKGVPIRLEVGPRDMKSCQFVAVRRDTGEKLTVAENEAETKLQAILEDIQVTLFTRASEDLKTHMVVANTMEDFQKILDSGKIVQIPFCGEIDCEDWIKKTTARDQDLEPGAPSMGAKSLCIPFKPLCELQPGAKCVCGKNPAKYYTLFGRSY
Experiment: PRS inhibitory activity ([32P]pyrophosphate exchange enzyme assay)
Type: biochemical
Details: 300 nM test compound; read-out: inhibitory rate (%) of PRS
attributeMeasured: inhibition at 0.3 µM (%)

{"compound": "CC(C)n1cc(-c2cc(F)cc(CNC(=O)c3ncnc4nc(C5CCCC5)[nH]c34)c2)cn1", "attributeMeasured": "inhibition at 0.3 µM", "observed": 102}
{"compound": "Cn1cc(-c2ccnc(CNC(=O)c3ncnc4nc(C5CCCC5)n(C)c34)c2)cn1", "attributeMeasured": "inhibition at 0.3 µM", "observed": 99}
{"compound": "CCn1c(C2CCCC2)nc2ccnc(C(=O)NCc3cc(F)cc(-c4cnn(C)c4)c3)c21", "attributeMeasured": "inhibition at 0.3 µM", "observed": 102}
{"compound": "Cc1cc(N2CC[C@@](C#N)(C3CC3)C2=O)cc(C(=O)NCc2cc(F)cc(-c3cnc(C)s3)c2)n1", "attributeMeasured": "inhibition at 0.3 µM", "observed": 99}
{"compound": "Cn1cc2c(CNC(=O)c3ncnc4nc(C5CCCC5)[nH]c34)cccc2n1", "attributeMeasured": "inhibition at 0.3 µM", "observed": 97}
{"compound": "Cc1cc(N2CCC(C#N)(C3CCC3)C2=O)cc(C(=O)NCc2cc(F)cc(-c3cnn(C)c3)c2)n1 (centres unmarked)", "attributeMeasured": "inhibition at 0.3 µM", "observed": 100}
{"compound": "Cn1c(C2CCCC2)nc2ncnc(C(=O)NCc3cc(F)cc(-c4cnn(C(C)(C)CO)c4)c3)c21", "attributeMeasured": "inhibition at 0.3 µM", "observed": 102}
{"compound": "Cn1c(C2CCCC2)nc2ccnc(C(=O)NCc3cc(F)cc(-c4cc[nH]c(=O)c4)c3)c21", "attributeMeasured": "inhibition at 0.3 µM", "observed": 101}

* * *

Molecular target: human PRS protein (His-Avi-hEPRS (998-1512)) (Homo sapiens)
Construct: to construct His-Avi-hEPRS (998-1512) expression plasmid; His tag (N); Avi tag (N); TEV cleavage site (ENLYFQG, then S; inferred from the forward primer hEPRS-TEV-NheF) (N); made in house; host or cells: E. coli BL21(DE3)
Assay: PRS inhibitory activity ([32P]pyrophosphate exchange enzyme assay)
Assay type: biochemical
Settings: 300 nM test compound; read-out: inhibitory rate (%) of PRS

{"compound": "Cn1cc(-c2cccc(CNC(=O)c3nccc4nc(C5CCCC5)[nH]c34)c2)cn1 [Example 84]", "target": "human PRS protein (His-Avi-hEPRS (998-1512)) (Homo sapiens)", "inhibition at 0.3 µM, %": 100}
{"compound": "COc1c(F)cc(-c2cnn(C)c2)cc1CNC(=O)c1ncnc2nc(C3CCCC3)n(C)c12 [Example 6]", "target": "human PRS protein (His-Avi-hEPRS (998-1512)) (Homo sapiens)", "inhibition at 0.3 µM, %": 79}
{"compound": "Cc1cc(N2CC[C@@](C#N)(C3CC3)C2=O)cc(C(=O)NCc2cc(F)cc(-c3cnn(C4CC4)c3)c2)n1 [Example 168]", "target": "human PRS protein (His-Avi-hEPRS (998-1512)) (Homo sapiens)", "inhibition at 0.3 µM, %": 100}
{"compound": "Cn1cc(-c2cc(F)cc(CNC(=O)c3nccc4nc(C5CCOC5)[nH]c34)c2)cn1 (centres unmarked) [Example 103]", "target": "human PRS protein (His-Avi-hEPRS (998-1512)) (Homo sapiens)", "inhibition at 0.3 µM, %": 99}
{"compound": "Cn1cc(-c2cc(F)cc(CNC(=O)c3ncnc4nc(C5(F)CCCC5)[nH]c34)c2)cn1 [Example 27]", "target": "human PRS protein (His-Avi-hEPRS (998-1512)) (Homo sapiens)", "inhibition at 0.3 µM, %": 99}
{"compound": "O=C(NCc1ccccc1Cl)c1nccc2nc(C3CCCC3)[nH]c12 [Example 81]", "target": "human PRS protein (His-Avi-hEPRS (998-1512)) (Homo sapiens)", "inhibition at 0.3 µM, %": 97}
{"compound": "Cn1cc(-c2cc(F)cc(CNC(=O)c3ncnc4nc(C5CCCC5)n(C)c34)c2)nn1 [Example 7]", "target": "human PRS protein (His-Avi-hEPRS (998-1512)) (Homo sapiens)", "inhibition at 0.3 µM, %": 102}
{"compound": "Cc1cc(N2CCC3(CCC3)C2=O)cc(C(=O)NCc2cc(F)cc(-c3cnn(C)c3)c2)n1 [Example 232]", "target": "human PRS protein (His-Avi-hEPRS (998-1512)) (Homo sapiens)", "inhibition at 0.3 µM, %": 100}
